test system: UACC-62 melanoma; experiment: NCI tumour cell line growth inhibition, 48 h; in the data active = GI50 below about 0.43 µM; inactive = the rest
API: response.call in active, inactive

Molecule	Group
CC(=O)c1c(Nc2cccc(F)c2)[nH]c2c(Cl)cc(Cl)c(Cl)c2c1=O	active
C=C1C(O)C2C(=C(CCC3CC3)C13CC3)C(=O)C(C)(C)C2O (stereo not drawn)	inactive
C=[CH][Sn]([CH]=C)([S]c1cccc2cccnc12)[S]c1cccc2cccnc12	active
CCN(CC)CC(O)CNc1c2ccc(Cl)cc2nc2ccc(OC)cc12 (stereo not drawn)	inactive
COc1cccc2c1O/C(=C\c1ncc([N+](=O)[O-])n1C)C2=O	inactive
COc1ccc(C(=S)N(C)NC(=O)CC(=O)NN(C)C(=S)c2ccc(OC)cc2)cc1	inactive

Which outcome was assigned to `O=C(CN(/C=C/C(=O)C(F)(F)F)c1ccc(Cl)cc1)c1ccc(F)cc1` in this test?
inactive

Which outcome was assigned to `COc1ccc(-c2ccc(-c3ccc(C(=N)N)c(F)c3)s2)cc1` in this test?
inactive

* * *

Overview of recorded TGI for various compounds
tested on: SK-MEL-2 melanoma; assay: NCI tumour cell line growth inhibition, 48 h

Take a look at these entries with their results.
Compound	Result
Cc1ccccc1NC(=O)/C(=N/NC(=O)CC#N)C1C(=O)N(c2ccccc2)N=C1N (stereo unspecified)	> 100 µM
CCOC(OC1=C(C#N)CCC1)C(C)[Se]c1ccccc1 (stereo unspecified)	> 100 µM
CCc1n[nH]c(=O)n1O	> 100 µM
COc1ccc(/C=C/C2C(C#N)=C(N)OC3=C2C(=O)CCC3)cc1 (stereo unspecified)	> 100 µM
CCCCCCCCCCCCCCCCCCOP(=O)([O-])OCC[N+](C)(C)C	3.11 µM

Consider CCN(CC)CC(O)CNc1c2ccc(Cl)cc2nc2ccc(OC)cc12 (stereo unspecified) . Its measured TGI is 2.85 µM

* * *

system: NCI/ADR-RES ovarian; experiment: NCI tumour cell line growth inhibition, 48 h
Outcome Measure: TGI

Compound	Assayed System	Result
O=C1/C=C/[C@@H](O)[C@@H]2C[C@@H](O)C[C@H]2/C=C/CCC[C@H](CCc2ccccc2)O1	NCI/ADR-RES ovarian	0.823 µM

Consider `COc1ccc(-c2cc(=O)c3c(O)cc(O)cc3o2)cc1OC` . Its measured TGI is > 100 µM

Consider CCC(C)NC(=S)N/N=C(\C)c1nc2ncccc2[nH]1 (stereo unspecified) . Its measured TGI is > 79.5 µM

Consider CC(=O)OC1C[C@@H](C)C2(CC(c3ccoc3)OC2=O)C2CCC(O)C3(CO3)C12CO (stereo partly specified) . Its measured TGI is > 100 µM

Consider O=C1OCC2=C1C(c1ccc3c(c1)OCO3)c1cc3c(cc1O2)OCO3 (stereo unspecified) . Its measured TGI is 2.03 µM

* * *

test system: RXF 393 renal; assay: NCI tumour cell line growth inhibition, 48 h
Outcome Measure: GI50

Take a look at these entries with their results.
Compound	Result
c1ccc2nc(N/N=C3\CCCCC3C3CCCCC3)ccc2c1 (configuration not stated)	9.21 µM
Cn1ccc2c1SSSSS2	28.9 µM
COc1cc2cnc3c(c2c(OC)c1OC)Cc1cc2c(cc1-3)OCO2	10.9 µM

Consider `COc1ccc(C(=O)c2sc3nc4c(cc3c2N)CCCC4)cc1OC` . Its measured GI50 is 3.41 µM

Consider `COc1ccc(/C=C2\COc3ccc(O)c(O)c3C2=O)cc1` . Its measured GI50 is 0.44 µM

Consider COc1ccc(C2C=C(c3ccc(OC)c(OC)c3)N=C3SC=CN32)c(Br)c1 (configuration not stated) . Its measured GI50 is 2.08 µM

Consider C#CC[C@@H]1C[C@]2(C)[C@H]3CC[C@@H]4[C@H]5C(C(=C)C)CC[C@]5(C(=O)NCCCCN)CC[C@@]4(C)[C@]3(C)CC[C@H]2C(C)(C)[C@H]1OC(C)=O (some centres not stated) . Its measured GI50 is 1.55 µM
